Target: TRPV1 (Homo sapiens (Human), UniProt Q8NER1)
Sequence (Q8NER1 whole entry, species assumed): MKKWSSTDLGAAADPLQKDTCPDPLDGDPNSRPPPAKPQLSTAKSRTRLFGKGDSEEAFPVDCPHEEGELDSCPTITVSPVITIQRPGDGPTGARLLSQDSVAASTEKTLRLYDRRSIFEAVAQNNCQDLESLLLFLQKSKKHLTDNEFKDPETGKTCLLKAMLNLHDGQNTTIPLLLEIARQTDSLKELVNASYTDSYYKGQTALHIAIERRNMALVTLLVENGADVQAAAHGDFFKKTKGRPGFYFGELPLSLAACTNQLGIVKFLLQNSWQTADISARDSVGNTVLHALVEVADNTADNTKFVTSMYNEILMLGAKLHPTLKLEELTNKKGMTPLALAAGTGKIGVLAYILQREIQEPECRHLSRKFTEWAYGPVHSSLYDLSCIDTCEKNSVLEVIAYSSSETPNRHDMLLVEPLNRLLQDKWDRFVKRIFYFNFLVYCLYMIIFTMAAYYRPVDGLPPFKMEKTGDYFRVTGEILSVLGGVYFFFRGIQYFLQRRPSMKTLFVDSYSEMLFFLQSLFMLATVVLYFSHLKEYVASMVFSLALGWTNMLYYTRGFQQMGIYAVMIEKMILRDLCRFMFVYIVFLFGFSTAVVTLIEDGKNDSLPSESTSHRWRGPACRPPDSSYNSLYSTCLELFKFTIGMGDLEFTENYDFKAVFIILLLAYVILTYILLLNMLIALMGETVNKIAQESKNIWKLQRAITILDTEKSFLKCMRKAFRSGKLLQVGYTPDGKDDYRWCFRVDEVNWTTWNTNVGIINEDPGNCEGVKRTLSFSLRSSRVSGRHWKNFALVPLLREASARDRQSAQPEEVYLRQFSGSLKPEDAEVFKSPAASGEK
Assay: TRPV1 antagonist calcium influx assay
Conditions: agonist capsaicin = 100%, ruthenium red = 0
Measured Endpoint: IC50

Output measured IC50 for this item: CCC(=O)c1sc(-c2cccc(F)c2)nc1[O-].[Na+]
> 10 µM

###

Target: human TRPM8 (Homo sapiens (Human), UniProt Q7Z2W7)
Sequence (Q7Z2W7 whole entry): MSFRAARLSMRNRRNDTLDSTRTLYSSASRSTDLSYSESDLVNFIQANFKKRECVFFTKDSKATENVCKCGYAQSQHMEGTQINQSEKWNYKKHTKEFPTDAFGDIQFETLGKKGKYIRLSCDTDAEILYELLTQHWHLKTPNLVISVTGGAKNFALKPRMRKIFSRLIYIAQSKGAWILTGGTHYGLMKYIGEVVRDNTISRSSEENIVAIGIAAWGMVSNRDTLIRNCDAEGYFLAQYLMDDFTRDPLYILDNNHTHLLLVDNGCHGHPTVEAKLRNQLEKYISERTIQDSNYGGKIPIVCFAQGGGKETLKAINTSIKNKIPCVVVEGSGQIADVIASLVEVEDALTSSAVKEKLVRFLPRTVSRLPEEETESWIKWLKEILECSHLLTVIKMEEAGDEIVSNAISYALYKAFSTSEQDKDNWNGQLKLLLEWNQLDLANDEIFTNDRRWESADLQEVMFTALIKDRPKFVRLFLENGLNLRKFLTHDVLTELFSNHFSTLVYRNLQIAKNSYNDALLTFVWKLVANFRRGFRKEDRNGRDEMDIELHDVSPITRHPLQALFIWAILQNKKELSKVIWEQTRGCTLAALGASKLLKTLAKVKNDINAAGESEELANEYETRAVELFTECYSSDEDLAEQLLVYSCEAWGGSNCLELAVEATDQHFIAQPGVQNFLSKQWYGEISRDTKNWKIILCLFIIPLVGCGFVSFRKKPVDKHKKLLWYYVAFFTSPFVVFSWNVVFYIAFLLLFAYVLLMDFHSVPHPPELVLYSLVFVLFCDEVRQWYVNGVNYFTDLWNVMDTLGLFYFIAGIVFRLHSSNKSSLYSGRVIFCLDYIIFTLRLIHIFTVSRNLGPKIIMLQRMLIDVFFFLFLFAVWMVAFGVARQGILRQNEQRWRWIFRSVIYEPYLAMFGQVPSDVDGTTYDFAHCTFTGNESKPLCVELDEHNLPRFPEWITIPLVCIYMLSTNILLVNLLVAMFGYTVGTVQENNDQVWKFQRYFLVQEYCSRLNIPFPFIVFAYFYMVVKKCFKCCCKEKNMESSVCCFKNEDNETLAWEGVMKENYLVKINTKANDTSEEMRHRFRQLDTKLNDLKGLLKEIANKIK
Test: HTS cellular-based calcium assay for human TRPM8 antagonists (FLIPR TETRA)
Settings: HEK293/hTRPM8 cells, agonist Cooling Agent 10 at EC80, Ca2+ fluorescence
For each entry below, report its IC50 value.
State the answer as a number, implicitly in nM.

Look up and state reported IC50 for CC/C(=N\O)c1sc(-c2cccc(F)c2)nc1O
1360

Given the molecule CCC(=O)c1sc(-c2ccc(O)cc2)nc1O , write its reported IC50.
326

Complete the entry with IC50 for CC/C(=N\OC)c1sc(-c2cccc(F)c2)nc1O
986

State, in one line, measured IC50 of CC(C)C(=O)c1sc(-c2cccc(F)c2)nc1O
299

Please report the measured IC50 for CON(C)C(=S)c1sc(-c2cccc(F)c2)nc1O
388

###

What pIC50 was measured for each of the following?
Molecular target: human TRPM8 (Homo sapiens (Human))
Assay: HTS cellular-based calcium assay for human TRPM8 antagonists (FLIPR TETRA)
Settings: HEK293/hTRPM8 cells, agonist Cooling Agent 10 at EC80, Ca2+ fluorescence
Lab note — pIC50 values are minus log10 of concentrations in M.

Please report pIC50 with human TRPM8 (Homo sapiens (Human)) for item CCC(=O)c1sc(-c2cnn(C)c2)nc1O .
7.05

State, for human TRPM8 (Homo sapiens (Human)), measured pIC50 of the molecule listed here: CCC(=O)c1sc(-c2cccc(F)c2)nc1O
7.49

Param request: pIC50 | system human TRPM8 (Homo sapiens (Human)) | item CCC(=O)c1sc(-c2cnc[nH]2)nc1O
6.52

Identify measured pIC50 obtained with human TRPM8 (Homo sapiens (Human)) for CCC(=O)c1sc(-c2ccc(C)cc2)nc1O .
6.63

Print human TRPM8 (Homo sapiens (Human)) pIC50 for CCC(=O)c1sc(-c2cccn2C)nc1O .
6.49

Jot down pIC50 (human TRPM8 (Homo sapiens (Human))) of CCC(=O)c1sc(-c2ncon2)nc1O .
7.00

State recorded pIC50 with human TRPM8 (Homo sapiens (Human)), entry CCC(=O)c1sc(-c2cccc(O)c2)nc1O , no comment.
7.64

Jot down pIC50 (human TRPM8 (Homo sapiens (Human))) of CON(C)C(=O)c1sc(-c2ccccc2Br)nc1O .
6.36

Name the recorded pIC50 of CCC(=O)c1sc(-c2ccc(F)cc2)nc1O , assay system human TRPM8 (Homo sapiens (Human)).
7.30

Quote pIC50 with test system human TRPM8 (Homo sapiens (Human)) for CCC(=O)c1sc(-c2ccccc2C)nc1O
6.39

Report pIC50 under test system human TRPM8 (Homo sapiens (Human)) for CCC(=O)c1sc(-c2ccccc2O)nc1O .
6.95

Look up human TRPM8 (Homo sapiens (Human)) data: pIC50 of CCC(=O)c1sc(-c2ccno2)nc1O , then report it.
6.91

Provide measured pIC50 on human TRPM8 (Homo sapiens (Human)) for CON(C)C(=O)c1sc(-c2cccs2)nc1O please.
6.81

Give pIC50 for this entry on human TRPM8 (Homo sapiens (Human)): CC(C)CC(=O)c1sc(-c2cccs2)nc1O
7.07

Specify the recorded pIC50 for COCC(=O)c1sc(-c2cccc(F)c2)nc1O , system: human TRPM8 (Homo sapiens (Human)).
6.28

Enter recorded pIC50 with human TRPM8 (Homo sapiens (Human)) for CCC(=S)c1sc(-c2cccc(F)c2)nc1O here.
6.63

Provide pIC50, tested on human TRPM8 (Homo sapiens (Human)), for O=C(c1sc(-c2cccc(F)c2)nc1O)C1CC1 .
6.54

Tell me pIC50 of CCC(=O)c1sc(-c2ccccn2)nc1O when tested on human TRPM8 (Homo sapiens (Human)).
6.84

For human TRPM8 (Homo sapiens (Human)), give the measured pIC50 of the entry CCC(=O)c1sc(-c2cccc(N)c2)nc1O
6.35

Answer with pIC50 of CON(C)C(=O)c1sc(-c2ccccc2C)nc1O measured for human TRPM8 (Homo sapiens (Human)).
7.07

###

Experiment: Pharmacokinetic profile, intravenous and oral administration
Assay type: in vivo
Details: plasma; intravenous administration, IV 5 mg/kg
Measured Endpoint: half-life (h)
Reply with just the number (in h).

Recall and state the measured half-life for CCC(=O)c1sc(-c2cccc(F)c2)nc1[O-].[Na+] .
3.01

###

Experiment: Pharmacokinetic profile, intravenous and oral administration
Format: in vivo
Conditions: plasma; oral administration, PO 10 mg/kg
Measured Endpoint: half-life (min)
Quick note: give the figure in min, leave out the unit.

Determine from records and report half-life for CCC(=O)c1sc(-c2cccc(F)c2)nc1[O-].[Na+] [Compound 2]
176

###

Assay: Pharmacokinetic profile, intravenous and oral administration
Type: in vivo
Settings: plasma; oral administration, PO 10 mg/kg
Measured Endpoint: AUC (ng·h/mL)
# value in ng·h/mL; strip the unit string

Return AUC (reported value) for this compound: CCC(=O)c1sc(-c2cccc(F)c2)nc1[O-].[Na+]
26100

###

Molecular target: CYP1A2 (Homo sapiens (Human))
Sequence (P05177 whole entry): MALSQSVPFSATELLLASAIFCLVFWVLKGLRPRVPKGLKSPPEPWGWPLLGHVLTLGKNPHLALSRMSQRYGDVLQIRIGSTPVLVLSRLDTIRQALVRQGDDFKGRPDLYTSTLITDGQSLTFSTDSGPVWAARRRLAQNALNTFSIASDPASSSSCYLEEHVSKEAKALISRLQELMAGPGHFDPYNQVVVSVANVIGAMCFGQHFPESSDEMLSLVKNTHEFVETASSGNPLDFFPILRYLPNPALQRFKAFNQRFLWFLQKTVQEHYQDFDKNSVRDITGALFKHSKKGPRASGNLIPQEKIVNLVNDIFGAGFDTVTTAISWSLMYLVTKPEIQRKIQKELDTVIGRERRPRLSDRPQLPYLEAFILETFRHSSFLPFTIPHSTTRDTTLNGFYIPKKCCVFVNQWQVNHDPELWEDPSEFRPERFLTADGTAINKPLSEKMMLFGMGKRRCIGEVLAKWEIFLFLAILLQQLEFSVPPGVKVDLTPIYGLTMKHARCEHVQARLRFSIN
pIC50: −log10 of the molar value.
Measured Endpoint: pIC50

Give the value of pIC50 reported for the following: CCC(=O)c1sc(-c2cccc(F)c2)nc1[O-].[Na+] [Compound 2]
< 4.52

###

Assay: Pharmacokinetic profile, intravenous and oral administration
Type: in vivo
Details: plasma; intravenous administration, IV 5 mg/kg
Measured Endpoint: clearance (mL/min/kg)
Use mL/min/kg as the unit, but write only the number.

Annotate the molecule CCC(=O)c1sc(-c2cccc(F)c2)nc1[O-].[Na+] with its measured clearance.
6.81

###

Experiment: CLint (rat)
Assay type: in vitro ADME
Measured Endpoint: microsomal CLint (µL/min/mg)
Give the value in µL/min/mg but do not write µL/min/mg after it.

Give the reported microsomal CLint for this molecule. CCC(=O)c1sc(-c2cccc(F)c2)nc1[O-].[Na+]
29.4

###

Molecular target: human TRPM8 (Homo sapiens (Human), UniProt Q7Z2W7)
Test: HTS cellular-based calcium assay for human TRPM8 antagonists (FLIPR TETRA)
Details: HEK293/hTRPM8 cells, agonist Cooling Agent 10 at EC80, Ca2+ fluorescence
Measured Endpoint: pIC50
// field semantics: pIC50 = negative decimal log of concentration (mol/L)

# lookup: human TRPM8 (Homo sapiens (Human), UniProt Q7Z2W7) pIC50, key = CC(=O)c1sc(-c2cccc(F)c2)nc1O
6.02

Provide pIC50, recorded with human TRPM8 (Homo sapiens (Human), UniProt Q7Z2W7), of CCC(=O)c1sc(-c2ccncc2)nc1O
6.34

Enter measured pIC50, system human TRPM8 (Homo sapiens (Human), UniProt Q7Z2W7), for the compound shown: CC(C)CC(=O)c1sc(-c2cccc(F)c2)nc1O
6.48

Write down measured pIC50 (human TRPM8 (Homo sapiens (Human), UniProt Q7Z2W7)) for this compound. CCC(=O)c1sc(-c2cccnc2)nc1O
6.45

Provide pIC50, system human TRPM8 (Homo sapiens (Human), UniProt Q7Z2W7), entry CCC(=O)c1sc(-c2ccc(NC)cc2)nc1O
6.10

Name the value of pIC50 reported for CCC(=O)c1sc(-c2cccc(NC)c2)nc1O when tested on human TRPM8 (Homo sapiens (Human), UniProt Q7Z2W7).
6.63

###

Target: CYP2C9 (Homo sapiens (Human))
Sequence (P11712 whole entry): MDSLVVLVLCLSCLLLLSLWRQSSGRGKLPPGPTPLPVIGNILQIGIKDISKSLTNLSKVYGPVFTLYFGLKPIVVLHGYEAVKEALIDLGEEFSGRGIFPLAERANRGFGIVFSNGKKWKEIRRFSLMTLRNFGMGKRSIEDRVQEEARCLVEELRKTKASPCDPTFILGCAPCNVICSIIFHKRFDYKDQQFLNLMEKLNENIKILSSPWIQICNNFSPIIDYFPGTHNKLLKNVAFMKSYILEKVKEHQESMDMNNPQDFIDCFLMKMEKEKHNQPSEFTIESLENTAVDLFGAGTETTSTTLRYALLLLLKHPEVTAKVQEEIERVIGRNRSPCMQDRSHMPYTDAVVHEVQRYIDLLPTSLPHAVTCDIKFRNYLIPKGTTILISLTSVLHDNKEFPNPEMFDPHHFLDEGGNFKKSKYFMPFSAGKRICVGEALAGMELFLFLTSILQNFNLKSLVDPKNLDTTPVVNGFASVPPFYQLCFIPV
Measured Endpoint: IC50

Give IC50 for this entry on CYP2C9 (Homo sapiens (Human)): CCC(=O)c1sc(-c2cccc(F)c2)nc1[O-].[Na+]
> 30 µM

###

Target: human TRPM8 (Homo sapiens (Human), UniProt Q7Z2W7)
Test: HTS cellular-based calcium assay for human TRPM8 antagonists (FLIPR TETRA)
Conditions: HEK293/hTRPM8 cells, agonist Cooling Agent 10 at EC80, Ca2+ fluorescence
Hi there, I'd appreciate the recorded IC50 for every entry that follows.
Give the quantity in nM, number only.

Indicate the recorded IC50 value for this compound: CCC(=O)c1sc(-c2cccs2)nc1O
596

Report measured IC50; entry is CCC(=O)c1sc(-c2ccc(N)cc2)nc1O
632

Please give the documented IC50 of CCC(=O)c1sc(-c2cccc(C)c2)nc1O
231

Output measured IC50 for this item: CCCC(=O)c1sc(-c2cccs2)nc1O
64

// fetch IC50 given entry CCC(=O)c1sc(-c2ccc[nH]2)nc1O
123

Tell us which IC50 value is on record for CCC(=O)c1sc(-c2cccc(Br)c2)nc1O
1730

Identify the reported IC50 for the following entry. CCC(=O)c1sc(-c2cccc(F)c2)nc1[O-].[Na+]
28

Give the measured IC50 for CCC(=N)c1sc(-c2cccc(F)c2)nc1O
1210

Indicate its recorded IC50; the compound in question is CCC(=O)c1sc(-c2ccco2)nc1O
236

Give a short answer stating reported IC50 for CCC(=O)c1sc(-c2cncn2C)nc1O .
112

Report IC50, nothing else, for this compound: CCC(=O)c1sc(-c2ccccc2Br)nc1O
912
